# assay_system: T1, human C1s (human, UniProt P09871 16-688)
# T1 construct: Analyte in the Biacore assays; also called hC1s; serum-derived human C1s (CompTech)
# T1 sequence: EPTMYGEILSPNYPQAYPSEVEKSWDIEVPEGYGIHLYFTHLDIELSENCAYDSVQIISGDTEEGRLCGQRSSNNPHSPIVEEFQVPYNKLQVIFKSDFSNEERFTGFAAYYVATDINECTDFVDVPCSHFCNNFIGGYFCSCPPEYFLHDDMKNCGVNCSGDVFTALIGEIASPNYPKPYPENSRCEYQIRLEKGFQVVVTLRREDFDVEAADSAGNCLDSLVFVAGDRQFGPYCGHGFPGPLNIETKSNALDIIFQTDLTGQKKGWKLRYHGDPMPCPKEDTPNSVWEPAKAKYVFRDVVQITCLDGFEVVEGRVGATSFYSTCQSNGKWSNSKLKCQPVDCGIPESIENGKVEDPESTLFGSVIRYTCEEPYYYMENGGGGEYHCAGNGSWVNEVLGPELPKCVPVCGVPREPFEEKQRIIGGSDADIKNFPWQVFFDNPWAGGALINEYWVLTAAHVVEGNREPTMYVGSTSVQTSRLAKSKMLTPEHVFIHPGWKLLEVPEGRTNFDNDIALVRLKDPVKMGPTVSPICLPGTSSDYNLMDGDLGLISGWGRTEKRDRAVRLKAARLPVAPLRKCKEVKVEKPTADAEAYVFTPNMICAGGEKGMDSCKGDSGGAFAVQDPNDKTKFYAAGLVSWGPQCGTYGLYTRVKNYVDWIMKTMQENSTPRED
# procedure_text: SPR (Biacore T200, 37C), Ab captured on protein A/G; pH 5.8, 1.2 mM Ca
Parameter threshold = 600000 M⁻¹ s⁻¹. Response is Y when kon meets or exceeds it, else N.

| binder | cat |
| --- | --- |
| C1_IPN92H0079-SG4GK/IPN93L0024-SK1 (antibody, human IgG4 S228P, kappa, name in Kabat numbering, V domains shown, Substitutions from IPN009VH2, Kabat numbering; also called IPN92H0079/IPN93L0024) VH: EVMLVESGGGLVKPGGSLRLSCAASGFTFSNKAMSWVRQAPGKGLEWVATISSGGSHTYYLDSVKGRFTISRDNSKDTLYLQMNSLRAEDTALYYCARLFTGHAMDYWGQGTLVTVSS VL: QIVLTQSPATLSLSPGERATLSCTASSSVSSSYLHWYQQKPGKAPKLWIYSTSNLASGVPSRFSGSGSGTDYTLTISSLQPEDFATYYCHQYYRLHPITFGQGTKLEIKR | Y |
| C1_IPN92H0033-SG4GK/IPN93L0072-SK1 (antibody, human IgG4 S228P, kappa, name in Kabat numbering, V domains shown, VL substitutions from IPN009VK3, Kabat numbering; also called IPN92H0033/IPN93L0072) VH: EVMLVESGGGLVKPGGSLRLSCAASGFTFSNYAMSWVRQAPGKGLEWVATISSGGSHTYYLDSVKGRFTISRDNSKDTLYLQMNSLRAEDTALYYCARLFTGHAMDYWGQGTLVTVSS VL: QIVLTQSPATLSLSPGERATLSCTASSSVKSSYLHWYQQKPGKAPKLWIYSTSNLASGVPSRFSGSGSGTDYTLTISSLQPEDFATYYCHQYYRLHPITFGQGTKLEIKR | N |
| C1_IPN92H0193-SG4GK/IPN93L0024-SK1 (antibody, human IgG4 S228P, kappa, name in Kabat numbering, V domains shown, Substitutions from IPN009VH2, Kabat numbering; also called IPN92H0193/IPN93L0024) VH: EVMLVESGGGLVKPGGSLRLSCAASGFTFSNYAMSWVRQAPGKGLEWVATISSGGSHTYYLDSVKDRFTISRDNSKDTLYLQMNSLRAEDTALYYCARLFTGHAMDYWGQGTLVTVSS VL: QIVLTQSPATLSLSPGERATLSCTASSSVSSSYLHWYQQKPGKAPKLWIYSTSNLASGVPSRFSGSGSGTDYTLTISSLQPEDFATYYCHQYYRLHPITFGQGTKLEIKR | Y |
| C1_IPN92H0156-SG4GK/IPN93L0024-SK1 (antibody, human IgG4 S228P, kappa, name in Kabat numbering, V domains shown, Substitutions from IPN009VH2, Kabat numbering; also called IPN92H0156/IPN93L0024) VH: EVMLVESGGGLVKPGGSLRLSCAASGFTFSNYAMSWVRQAPGKGLEWVATISSGGSHTKYLDSVKGRFTISRDNSKDTLYLQMNSLRAEDTALYYCARLFTGHAMDYWGQGTLVTVSS VL: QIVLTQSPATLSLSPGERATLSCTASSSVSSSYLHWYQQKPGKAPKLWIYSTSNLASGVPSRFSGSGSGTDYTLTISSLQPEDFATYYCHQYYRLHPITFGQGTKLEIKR | Y |
